target: T1, Recombinant human TfR1, His6-tagged (a.a. 89-760) (human, UniProt P02786 89-760); assay: SPR, TfR1 on chip
T1 construct: range 89-760; captured and coupled on an NTA chip for SPR; also called transferrin receptor 1; CD71
T1 sequence (P02786 89-760 limits assumed): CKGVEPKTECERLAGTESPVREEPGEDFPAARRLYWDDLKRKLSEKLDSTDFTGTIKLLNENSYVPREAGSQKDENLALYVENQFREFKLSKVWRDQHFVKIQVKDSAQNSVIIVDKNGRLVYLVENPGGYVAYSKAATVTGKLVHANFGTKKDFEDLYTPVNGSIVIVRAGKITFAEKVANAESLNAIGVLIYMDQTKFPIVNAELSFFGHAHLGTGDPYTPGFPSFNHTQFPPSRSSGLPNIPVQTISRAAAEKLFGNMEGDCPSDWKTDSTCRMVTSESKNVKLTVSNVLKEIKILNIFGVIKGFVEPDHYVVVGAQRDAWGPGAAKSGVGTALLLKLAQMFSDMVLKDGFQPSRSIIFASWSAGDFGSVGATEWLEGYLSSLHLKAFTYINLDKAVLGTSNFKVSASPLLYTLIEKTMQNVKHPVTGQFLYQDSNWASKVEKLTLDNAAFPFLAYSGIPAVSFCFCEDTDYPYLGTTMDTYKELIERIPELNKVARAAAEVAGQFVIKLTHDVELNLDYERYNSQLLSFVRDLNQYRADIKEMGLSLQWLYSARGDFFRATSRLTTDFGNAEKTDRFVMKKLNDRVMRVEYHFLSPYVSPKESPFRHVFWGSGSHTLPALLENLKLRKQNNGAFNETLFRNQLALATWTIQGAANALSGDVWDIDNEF
pKd: −log10 of the molar value. Starred links: 1 amine or outer side, 2 acyl side, 3 side chain; linkers in the order of their positions; H or OH if unused. Positions of bridges follow the written chain, without caps; N, C: chain ends. Non-standard residues stand in square brackets, D forms with d. No end group written: not given here. Fluorescein = fluorescein label on the C-terminal Lys side chain; TATB = O=C(C[*:1])N1CN(C(=O)C[*:2])CN(C(=O)C[*:3])C1; 2Nal = N[C@@H](Cc1ccc2ccccc2c1)C(=O)O; Tle = CC(C)(C)[C@H](N)C(=O)O; Sar = CNCC(=O)O
QUANTITY_NAME: pKd

Example results:
BINDER | pKd
ACSPDAHLGCISYCPHP-NH2 (linker 2-10-14 via TATB (inferred)) [BCY17115] | 7.22
CPXDAYLGCXSYCEPW (3 Cys on TATB; N-terminal acetyl (Ac); core as printed CP[HyP]DAYLGC[tBuGly]SYC) [BCY17995] | 8.47
CPXDAYLGCXSYC (3 Cys on TATB; N-terminal acetyl (Ac); core as printed CP[HyP]DAYLGC[tBuGly]SYC) [BCY17991] | 8.47
CPXDAYLGCXSYC (3 Cys on TATA; N-terminal acetyl (Ac); core as printed CP[HyP]DAYLGC[tBuGly]SYC, Same peptide as BCY17991 but cyclised on TATA) [BCY20546] | 5.78
Ac-CSADAHLGCISYC (linker 1-9-13 via TATB (inferred)) [BCY17987] | 7.30
ACAPDAHLGCISYCA[Sar][Sar][Sar][Sar][Sar][Sar]K(Fluorescein) (linker 2-10-14 via TATB) [BCY15769] | 7.15

(a) HWMCSPDAHLGCISYCA (linker 4-12-16 via TATB) [BCY17110]
(b) ACSPDAHLGCIS[2Nal]CA (linker 2-10-14 via TATB) [BCY16031]
Dear colleague, could you let me know whether a or b has the lower recorded pKd? Thanks. # reply format: chosen label
b
(b: 7.17, a: 7.82)

(A) ACSPDAHLGC[Tle]SYCA (linker 2-10-14 via TATB) [BCY16051]
(B) NWNCSPDAHLGCISYC (3 Cys on TATB; N-terminal acetyl (Ac); [NMeTrp] in N-terminal extension) [BCY18036]
Dear colleague, could you let me know whether A or B has the lower recorded pKd? Thanks. # reply format: chosen label
B

(P) ACPXDAHLGCISYCA (3 Cys on TATB; core as printed CP[Aib]DAHLGCISYC) [BCY16550]
(Q) ACSPDAHLGCISYCEHQE (linker 2-10-14 via TATB (inferred)) [BCY17119]
Dear colleague, could you let me know whether P or Q has the lower recorded pKd? Thanks. # reply format: chosen label
Q
